target: UniProt P06186; experiment: Relative binding affinity for Progesterone receptor of rabbit uterus cytosol, displacement of [3H]R5020 over 24 hr at 0C
Sequence (P06186 whole entry): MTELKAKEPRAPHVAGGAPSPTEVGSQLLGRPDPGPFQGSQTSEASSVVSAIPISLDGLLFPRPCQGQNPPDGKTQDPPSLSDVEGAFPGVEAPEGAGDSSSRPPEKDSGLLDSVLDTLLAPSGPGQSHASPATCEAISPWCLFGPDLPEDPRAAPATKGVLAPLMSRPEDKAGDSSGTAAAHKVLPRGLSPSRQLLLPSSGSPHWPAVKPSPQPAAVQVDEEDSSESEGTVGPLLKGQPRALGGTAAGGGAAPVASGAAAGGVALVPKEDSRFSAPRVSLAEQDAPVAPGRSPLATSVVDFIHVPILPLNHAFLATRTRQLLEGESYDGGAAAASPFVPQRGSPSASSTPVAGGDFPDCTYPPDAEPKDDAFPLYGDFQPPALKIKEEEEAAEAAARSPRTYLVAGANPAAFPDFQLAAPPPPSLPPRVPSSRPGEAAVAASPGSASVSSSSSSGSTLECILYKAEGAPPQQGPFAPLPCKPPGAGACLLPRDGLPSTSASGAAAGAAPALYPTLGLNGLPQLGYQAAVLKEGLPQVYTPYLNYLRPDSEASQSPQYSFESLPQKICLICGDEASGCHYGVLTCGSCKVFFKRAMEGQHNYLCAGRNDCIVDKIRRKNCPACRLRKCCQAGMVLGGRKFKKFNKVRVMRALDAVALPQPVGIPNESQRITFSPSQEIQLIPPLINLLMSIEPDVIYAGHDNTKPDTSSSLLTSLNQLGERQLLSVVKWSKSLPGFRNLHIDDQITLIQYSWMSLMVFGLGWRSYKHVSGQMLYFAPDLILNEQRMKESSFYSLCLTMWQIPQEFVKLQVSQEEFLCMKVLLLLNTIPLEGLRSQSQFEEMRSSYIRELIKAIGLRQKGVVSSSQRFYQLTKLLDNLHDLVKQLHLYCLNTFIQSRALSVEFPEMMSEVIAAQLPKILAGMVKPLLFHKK
This section presents molecules with their documented RBA values.

molecule	value operator	RBA
CC12CCC(=O)C=C1CCC1C2CCC2(C)C1CC[C@@H]2C(=O)C[Se]c1ccccc1 (some centres undefined)	=	59
CC12CCC(=O)C=C1CCC1C2CCC2(C)C1C[C@@H]([Se]c1ccccc1)C2O (some centres undefined)	=	0.8
CC(=O)[C@@]1([Se]c2ccccc2)CCC2C3CCC4=CC(=O)CCC4(C)C3CCC21C (some centres undefined)	=	2.1
CC12CCC(=O)C=C1CCC1C2CCC2(C)C1C[C@H]([Se]c1ccccc1)C2O (some centres undefined)	<	0.1

---

Biological target: Mineralocorticoid receptor (Rattus norvegicus) (UniProt P22199)
Sequence (whole entry): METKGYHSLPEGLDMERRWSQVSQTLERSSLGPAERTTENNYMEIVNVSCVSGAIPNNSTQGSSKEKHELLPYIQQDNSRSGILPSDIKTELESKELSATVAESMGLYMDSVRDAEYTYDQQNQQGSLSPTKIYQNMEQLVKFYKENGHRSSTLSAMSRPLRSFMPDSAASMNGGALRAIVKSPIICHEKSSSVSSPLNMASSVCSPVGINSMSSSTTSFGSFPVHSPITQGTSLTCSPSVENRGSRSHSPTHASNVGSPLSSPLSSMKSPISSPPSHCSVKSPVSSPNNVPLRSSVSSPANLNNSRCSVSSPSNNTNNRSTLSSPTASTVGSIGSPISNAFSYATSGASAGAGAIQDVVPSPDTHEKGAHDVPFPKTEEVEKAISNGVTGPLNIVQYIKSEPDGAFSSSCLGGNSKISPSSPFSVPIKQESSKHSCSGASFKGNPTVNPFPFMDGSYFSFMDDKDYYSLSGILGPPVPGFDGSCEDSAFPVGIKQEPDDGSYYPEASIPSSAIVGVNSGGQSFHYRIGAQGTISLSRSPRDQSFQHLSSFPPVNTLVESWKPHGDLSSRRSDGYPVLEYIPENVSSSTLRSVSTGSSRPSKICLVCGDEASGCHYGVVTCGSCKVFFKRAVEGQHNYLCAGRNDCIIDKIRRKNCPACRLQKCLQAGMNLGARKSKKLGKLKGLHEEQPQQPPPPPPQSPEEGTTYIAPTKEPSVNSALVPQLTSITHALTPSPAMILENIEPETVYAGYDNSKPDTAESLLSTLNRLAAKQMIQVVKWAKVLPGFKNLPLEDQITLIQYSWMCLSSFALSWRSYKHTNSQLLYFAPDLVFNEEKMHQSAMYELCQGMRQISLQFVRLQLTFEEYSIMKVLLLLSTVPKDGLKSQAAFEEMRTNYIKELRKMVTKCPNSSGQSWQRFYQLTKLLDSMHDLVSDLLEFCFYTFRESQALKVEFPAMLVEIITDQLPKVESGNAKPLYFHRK
Experiment: Relative binding affinity for mineralocorticoid receptor of rat kidney homogenates, displacement of [3H]aldosterone over 30 min at 25 degree C
This section presents molecules with their documented RBA values.

molecule	value operator	RBA
CC(=O)[C@@]1([Se]c2ccccc2)CCC2C3CCC4=CC(=O)CCC4(C)C3CCC21C (some centres undefined)	=	0.23
CC12CCC(=O)C=C1CCC1C2CCC2(C)C1CC[C@@H]2C(=O)C[Se]c1ccccc1 (some centres undefined)	=	2.1
CC12CCC(=O)C=C1CCC1C2CCC2(C)C1C[C@H]([Se]c1ccccc1)C2O (some centres undefined)	<	0.1
CC12CCC(=O)C=C1CCC1C2CCC2(C)C1C[C@@H]([Se]c1ccccc1)C2O (some centres undefined)	=	0.15

---

Molecular target: Androgen receptor (Rattus norvegicus)
Sequence (whole entry): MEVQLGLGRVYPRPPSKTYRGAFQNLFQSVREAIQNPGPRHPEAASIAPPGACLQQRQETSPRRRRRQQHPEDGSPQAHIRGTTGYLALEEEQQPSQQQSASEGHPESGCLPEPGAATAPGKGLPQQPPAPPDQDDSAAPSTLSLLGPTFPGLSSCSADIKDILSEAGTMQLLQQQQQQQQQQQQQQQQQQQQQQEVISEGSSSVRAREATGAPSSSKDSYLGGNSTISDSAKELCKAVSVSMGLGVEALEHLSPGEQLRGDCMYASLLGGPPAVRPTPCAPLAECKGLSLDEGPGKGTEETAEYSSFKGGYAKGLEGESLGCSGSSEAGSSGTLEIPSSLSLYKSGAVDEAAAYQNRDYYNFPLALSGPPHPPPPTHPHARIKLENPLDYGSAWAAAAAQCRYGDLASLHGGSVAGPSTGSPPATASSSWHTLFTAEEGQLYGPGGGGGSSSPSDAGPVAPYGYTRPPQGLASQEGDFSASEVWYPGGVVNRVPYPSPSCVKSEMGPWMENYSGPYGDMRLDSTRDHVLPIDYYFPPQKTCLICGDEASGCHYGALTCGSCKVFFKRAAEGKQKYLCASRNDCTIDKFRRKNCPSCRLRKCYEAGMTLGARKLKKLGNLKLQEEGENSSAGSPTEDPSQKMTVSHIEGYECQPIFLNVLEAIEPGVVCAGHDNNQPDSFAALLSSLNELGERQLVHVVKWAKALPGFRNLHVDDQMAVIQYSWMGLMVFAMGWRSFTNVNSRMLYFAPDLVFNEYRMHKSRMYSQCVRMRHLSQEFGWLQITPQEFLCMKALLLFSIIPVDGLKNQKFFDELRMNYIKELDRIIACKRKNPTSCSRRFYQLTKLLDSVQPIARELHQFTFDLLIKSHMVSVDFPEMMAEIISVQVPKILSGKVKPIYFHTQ
Assay: Relative binding affinity for androgen receptor of rat prostate cytosol, displacement of [3H]R-1881 over 2 hr at 0C
readout label: RBA

molecule	value operator	endpoint result
CC12CCC(=O)C=C1CCC1C2CCC2(C)C1C[C@@H]([Se]c1ccccc1)C2O (some centres undefined)	=	0.33
CC(=O)[C@@]1([Se]c2ccccc2)CCC2C3CCC4=CC(=O)CCC4(C)C3CCC21C (some centres undefined)	<	0.1
CC12CCC(=O)C=C1CCC1C2CCC2(C)C1CC[C@@H]2C(=O)C[Se]c1ccccc1 (some centres undefined)	=	1.7
CC12CCC(=O)C=C1CCC1C2CCC2(C)C1C[C@H]([Se]c1ccccc1)C2O (some centres undefined)	=	1.9

---

Molecular target: Glucocorticoid receptor (Rattus norvegicus) (UniProt P06536)
Sequence (whole entry): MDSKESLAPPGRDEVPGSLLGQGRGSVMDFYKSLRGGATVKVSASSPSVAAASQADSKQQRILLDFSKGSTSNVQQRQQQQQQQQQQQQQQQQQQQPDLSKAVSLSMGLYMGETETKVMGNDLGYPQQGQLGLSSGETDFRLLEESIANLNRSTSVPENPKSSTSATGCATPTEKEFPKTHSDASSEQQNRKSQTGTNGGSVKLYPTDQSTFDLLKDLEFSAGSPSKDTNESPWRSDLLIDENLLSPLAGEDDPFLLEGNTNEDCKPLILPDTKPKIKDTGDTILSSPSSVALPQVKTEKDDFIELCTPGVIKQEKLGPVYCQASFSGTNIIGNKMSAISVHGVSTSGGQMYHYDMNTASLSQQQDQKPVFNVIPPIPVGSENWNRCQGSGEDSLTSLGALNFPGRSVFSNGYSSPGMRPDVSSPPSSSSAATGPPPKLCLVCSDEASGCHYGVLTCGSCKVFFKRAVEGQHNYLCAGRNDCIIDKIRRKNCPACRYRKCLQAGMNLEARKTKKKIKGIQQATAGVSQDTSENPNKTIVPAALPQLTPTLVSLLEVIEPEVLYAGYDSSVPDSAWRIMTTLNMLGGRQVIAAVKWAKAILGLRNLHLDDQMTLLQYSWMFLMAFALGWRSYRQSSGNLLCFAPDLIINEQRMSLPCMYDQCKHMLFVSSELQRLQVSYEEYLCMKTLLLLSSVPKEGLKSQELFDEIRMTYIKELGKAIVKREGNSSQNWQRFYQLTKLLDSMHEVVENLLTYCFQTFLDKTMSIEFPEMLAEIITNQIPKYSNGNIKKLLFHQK
Assay: Relative binding affinity for glucocorticoid receptor of rat liver cytosol, displacement of [3H]dexamethasone over 4 hr at 0C
readout label: RBA

molecule	readout label	value operator	endpoint result
CC12CCC(=O)C=C1CCC1C2CCC2(C)C1C[C@@H]([Se]c1ccccc1)C2O (some centres undefined)	RBA	=	0.23
CC(=O)[C@@]1([Se]c2ccccc2)CCC2C3CCC4=CC(=O)CCC4(C)C3CCC21C (some centres undefined)	RBA	<	0.1
CC12CCC(=O)C=C1CCC1C2CCC2(C)C1CC[C@@H]2C(=O)C[Se]c1ccccc1 (some centres undefined)	RBA	=	0.6
CC12CCC(=O)C=C1CCC1C2CCC2(C)C1C[C@H]([Se]c1ccccc1)C2O (some centres undefined)	RBA	<	0.1
